System: Rattus norvegicus
Assay: Ability to lower the serum prolactin levels in comparison with that of pergolide expressed as percent inhibition change at ip dose of 0.05 mg/kg
Type: functional
Conditions: route intraperitoneal
assay-readout: Change (%)
Write the answer as a number in %, unit excluded.

Exercise: Report Change, nothing else, for this molecule: CCCN1CCO[C@@H]2Cc3n[nH]cc3C[C@H]21
Solution: -41

Exercise: Give reported Change value for CCCN1CCC[C@@H]2Cc3n[nH]cc3C[C@H]21
Solution: -61

Exercise: For the molecule CCCN1C[C@H](CSC)C[C@@H]2c3cccc4[nH]cc(c34)C[C@H]21 [PERGOLIDE] , report Change.
Solution: -95

Exercise: Name the recorded Change of the molecule listed here: CCCN1CCO[C@@H]2Cc3nc(N)sc3C[C@H]21
Solution: -51

Exercise: Give me measured Change, please, for this molecule: CCCN1CCO[C@@H]2Cc3nc(N)ncc3C[C@H]21
Solution: -70
